# Test Target: T1, HCoV-OC43 spike antigens (bead panel) (HCoV-OC43, UniProt P36334 14-1297)
# T1 sequence: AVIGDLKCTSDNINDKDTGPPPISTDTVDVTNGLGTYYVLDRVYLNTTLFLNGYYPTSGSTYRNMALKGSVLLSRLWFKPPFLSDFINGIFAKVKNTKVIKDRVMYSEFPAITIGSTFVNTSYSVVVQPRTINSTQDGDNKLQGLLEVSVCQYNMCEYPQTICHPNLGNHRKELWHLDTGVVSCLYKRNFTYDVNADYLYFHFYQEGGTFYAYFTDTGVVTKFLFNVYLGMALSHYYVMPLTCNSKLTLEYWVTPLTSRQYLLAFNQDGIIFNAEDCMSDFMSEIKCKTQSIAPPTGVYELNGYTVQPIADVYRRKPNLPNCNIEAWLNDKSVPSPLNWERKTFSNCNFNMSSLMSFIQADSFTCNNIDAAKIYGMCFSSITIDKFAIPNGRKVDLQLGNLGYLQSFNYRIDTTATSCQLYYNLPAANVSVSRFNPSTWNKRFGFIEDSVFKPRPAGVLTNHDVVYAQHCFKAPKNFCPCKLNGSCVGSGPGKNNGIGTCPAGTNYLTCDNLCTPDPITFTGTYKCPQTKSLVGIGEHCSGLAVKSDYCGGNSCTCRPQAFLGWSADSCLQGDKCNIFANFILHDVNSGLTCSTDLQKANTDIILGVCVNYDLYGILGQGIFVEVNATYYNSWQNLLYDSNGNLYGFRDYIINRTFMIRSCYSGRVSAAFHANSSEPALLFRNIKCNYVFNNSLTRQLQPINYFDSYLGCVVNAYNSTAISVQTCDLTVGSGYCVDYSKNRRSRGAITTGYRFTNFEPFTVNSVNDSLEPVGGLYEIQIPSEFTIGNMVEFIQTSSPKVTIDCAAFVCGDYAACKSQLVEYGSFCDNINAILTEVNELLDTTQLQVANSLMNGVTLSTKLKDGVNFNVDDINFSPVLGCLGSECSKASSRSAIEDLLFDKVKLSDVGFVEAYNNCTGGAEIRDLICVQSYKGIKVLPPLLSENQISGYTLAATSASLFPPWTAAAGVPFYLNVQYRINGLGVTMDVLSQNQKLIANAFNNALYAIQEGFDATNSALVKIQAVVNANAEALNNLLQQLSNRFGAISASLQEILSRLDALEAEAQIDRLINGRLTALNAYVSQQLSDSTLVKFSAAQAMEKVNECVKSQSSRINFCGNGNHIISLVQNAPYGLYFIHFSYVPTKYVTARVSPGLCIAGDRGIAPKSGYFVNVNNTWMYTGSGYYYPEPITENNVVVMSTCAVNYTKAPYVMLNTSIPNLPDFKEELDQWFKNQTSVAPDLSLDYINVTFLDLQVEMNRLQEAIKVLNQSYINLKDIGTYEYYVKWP
# Assay Explanation: multiplex bead assay
Measurement Type: binding result

Some solved entries appear below for comparison.
COV_1172 (antibody, V domains shown, human IgG1) VH: QVQLQESGPGLVKPSETLSLTCTVSGGSIRSYYWSWIRQPPGKGLEWIGYIYYSGSTNYSPSLKSRVTISVDTSKNQFSLKLNSVTAADTAVYYCARRGLGYCSGDSCSNAFDIWGQGTMVTVSS VL: DIQMTQSPSSLSASVGDRVTITCRASQSISSYLNWYQQKPGRAPELLIYDASSLQSGVPSGFSGSGSGTDFTLTISSLQPEDFATYYCQQSYSTPFTFGPGTKVDIKR	no binding
COV_2056 (SEQ ID NO:432/437) (antibody, V domains shown) VH: EVQLVESGGGVVQPGRSLRLSCAASGFTFSIYGMHWVRQAPGKGLEWVALISYDGTNKYYADSVKGRFSISRDDSKNTLYLQMNSLRPEDTAVYYCAKVLMMGDSSGFSLGDAFDIWGQGTMVTVSS VL: DIQMTQSPSSVSASVGDRVTITCRASQGISNWLAWYQQKPGKAPKLLIYAASSLQSGVPSRFSGSVSGTDFTLTISSLQPEDFATYYCQQANSFPLTFGGGTKVDIK	no binding
COV_2093 (antibody, V domains shown, human IgG1) VH: EVQLVESGGGLVQPGGSLRLSCAASGFMFNRFWMSWVRQAPGKGLEWVTNIKQDGSEKNYVDSVKGRFTISRDNAKNSLYLQMNSLRAEDTAVYYCARDGLYYDFRSPSPFYGMDVWGQGTTVTVSS VL: DIQMTQSPSSLSASVGDRVTITCRASQSISSYLNWYQHKSGKAPKLLIYAASRLQSGVPSRFSGSGSGTDFTLTIVSLQPEDLATYYCQQSYSTPRTFGGGTKVEIKR	no binding
COV_2173 (antibody, V domains shown, human IgG1) VH: QVQLQESGPGLVKPSETLSLTCSVSGDSISSSDYSWGWIRQPPGKGLEWIGTIYYIKNTYYNPSLRSRVTLSVDTSKNLFSLKLSSVTAADTAVYYCARERPPFDVVVVPAARPYNWFDPWGLGTLVIVSS VL: QSVLMQPPSVSGAPGQRVTISCTGSSSNIGAGYDVHWYQQLPGTAPKLLIYGNNNRPSGVPDRFSGSKSGTSASLAITGLQADDEADYYCQSYDSSLSGSKVFGGGTKLTVL	no binding

Value lookup for binding result; key = COV_2215 (antibody, V domains shown, human IgG1) VH: EVQLVESGGGLVKPGGSLRLSCAASGFTFSHAWMSWVRQAPGKGLEWVGRIKSKTDGGTADYAAPVKGRFTISRDDSKNTLYLQMNSLKTEDTAVYYCATIRYYYDSSAYLNDAFDIWGQGTMVTVSS VL: SYELTQPPSVSVSPGQTARITCSGDALPKKYAYWYQQKSGQAPVLVIYEDSKRPSGIPERFSGSSSGTMATLTISGAQVEDEADYYCYSTDSSGNHRVFAGGTKLTVLG
no binding

Origin of values: patent US20240101645A1
